Every entry's value here was drawn from patent US20240398805A1.

system: HCC827-YVMA cells (human ERBB2 exon20 insertion mutant A775_G776ins YVMA); experiment: Cell growth inhibition (CellTiter-Glo, 3 days) in HCC827-YVMA; format: cell-based; details: 72 h, 3 days after administration
metric: GI50

Please look up its GI50: C=CC(=O)N1CCC(Nc2cc3c(Nc4ccc(Oc5ccnc(-c6nc(C)c(C)s6)c5)cc4F)ncnc3cc2OC)CC1
< 30 nM

Please look up its GI50: C=CC(=O)N1CCC(Nc2cc3c(Nc4ccc(Oc5ccnc(N6CC7CC7C6)c5)cc4F)ncnc3cc2OC)CC1 (stereo not drawn)
< 30 nM

Please look up its GI50: C=CC(=O)N1CCC(Nc2cc3c(Nc4ccc(Oc5ncc(-c6ccc(C)nc6)s5)cc4F)ncnc3cc2OC)CC1
100 to 300 nM

Please look up its GI50: C=CC(=O)N1CCC(Nc2cc3c(Nc4ccc(Oc5ccnc(-c6nc(C)no6)c5)cc4F)ncnc3cc2OC)CC1
< 30 nM

Please look up its GI50: C=CC(=O)N1CCC(Nc2cc3c(Nc4ccc(Oc5nc(-c6cnc(OC)nc6)cs5)cc4F)ncnc3cc2OC)CC1
< 30 nM

Please look up its GI50: C=CC(=O)N1CCC(Nc2cc3c(Nc4ccc(Oc5ccn(-c6ccc(C)nc6)n5)cc4F)ncnc3cc2OC)CC1
30 to 60 nM

Please look up its GI50: C=CC(=O)N1CCC(Nc2cc3c(Nc4ccc(Oc5ccn(-c6cnc(C)cn6)n5)cc4F)ncnc3cc2OC)CC1
100 to 300 nM

Please look up its GI50: C=CC(=O)N1CCC(Nc2cc3c(Nc4ccc(Oc5ccn(-c6cnc(C)c(C#N)c6)n5)cc4F)ncnc3cc2OC)CC1
60 to 100 nM

Please look up its GI50: C=CC(=O)Nc1cc2c(Nc3ccc(Oc4ccnc(-c5nc(C)cs5)c4)cc3F)ncnc2cc1OCC
≥ 1000 nM

Please look up its GI50: C=CC(=O)N1CCC(Nc2cc3c(Nc4ccc(Oc5ccnc(N6CC(C)(C)C6)c5)cc4F)ncnc3cc2OC)CC1
< 30 nM

Please look up its GI50: C=CC(=O)N1CCC(Nc2cc3c(Nc4ccc(Oc5ccnc(N6CC(CC#N)C6)c5)cc4F)ncnc3cc2OC)CC1
30 to 60 nM

Please look up its GI50: C=CC(=O)N1CC[C@@H](Nc2cc3c(Nc4ccc(Oc5ccn(-c6cnc(OC)nc6)n5)cc4F)ncnc3cc2OC)C1
≥ 1000 nM

Please look up its GI50: C=CC(=O)N1CCC(Nc2cc3c(Nc4ccc(Oc5ccnc(N6CCC(N(C)C)CC6)c5)cc4F)ncnc3cc2OC)CC1
≥ 1000 nM

Please look up its GI50: C=C(F)C(=O)N1CCC(Nc2cc3c(Nc4ccc(Oc5ccn(-c6cnc(C)c(F)c6)n5)cc4F)ncnc3cc2OC)CC1
600 to 1000 nM

Please look up its GI50: C=CC(=O)N1CCC(Nc2cc3c(Nc4ccc(Oc5ccnc(NC6CCOCC6)c5)cc4F)ncnc3cc2OC)CC1
< 30 nM

Please look up its GI50: C=CC(=O)N1CCC(Nc2cc3c(Nc4ccc(Oc5nc(-c6cnc(C7CC7)nc6)cs5)cc4F)ncnc3cc2OC)CC1
30 to 60 nM

Please look up its GI50: C=CC(=O)N1CCC(Oc2cc3c(Nc4ccc(Oc5ccnc(N6C[C@H]7COC[C@H]7C6)c5)cc4F)ncnc3cc2OC)CC1
30 to 60 nM

Please look up its GI50: C=CC(=O)N1CCC(Nc2cc3c(Nc4ccc(Oc5ccnc(N6CCN(C(C)=O)CC6)c5)cc4F)ncnc3cc2OC)CC1
600 to 1000 nM

Please look up its GI50: C=CC(=O)N1CCC(Nc2cc3c(Nc4ccc(Oc5ccnc(N6CC[C@H](C#N)C6)c5)cc4F)ncnc3cc2OC)CC1
< 30 nM

Please look up its GI50: C=CC(=O)N1CCC(Oc2cc3c(Nc4ccc(Oc5ccnc(N6CC[C@@H](N(C)C)C6)c5)cc4F)ncnc3cc2OC)CC1
100 to 300 nM

Please look up its GI50: C=CC(=O)N1CCC(Nc2cc3c(Nc4ccc(Oc5ccnc(N6CCN(C(C)C)CC6)c5)cc4F)ncnc3cc2OC)CC1
300 to 600 nM

Please look up its GI50: C=CC(=O)N1CCC(Nc2cc3c(Nc4ccc(Oc5ccn(-c6cnc(OC)nc6)n5)c(F)c4)ncnc3cc2OC)CC1
< 30 nM

Please look up its GI50: C=CC(=O)N1CCC(Nc2cc3c(Nc4ccc(Oc5ccnc(N6CCC(C#N)C6)c5)cc4F)ncnc3cc2OC)CC1 (stereo not drawn)
< 30 nM

Please look up its GI50: C=CC(=O)N1CCC(Nc2cc3c(Nc4ccc(Oc5ccnc(N6CCC(F)(F)C6)c5)cc4F)ncnc3cc2OC)CC1
< 30 nM

Please look up its GI50: C=CC(=O)N1CCC(Nc2cc3c(Nc4ccc(Oc5ccnc(N(C)CCOC)c5)cc4F)ncnc3cc2OC)CC1
60 to 100 nM

Please look up its GI50: C=CC(=O)N1CCC(Nc2cc3c(Nc4ccc(Oc5ccnc(N6CCC(C)(C)C6)c5)cc4F)ncnc3cc2OC)CC1
30 to 60 nM

Please look up its GI50: C=CC(=O)N1CCC(Nc2cc3c(Nc4ccc(Oc5ccnc(CN6CCOCC6)c5)cc4F)ncnc3cc2OC)CC1
< 30 nM
